Where do the numbers come from? From patent US20090192167A1.

Attribute: Mortality (%)
# Test system: Chilo suppressalis
# experimental.parameters: in vivo
Numbers only here, please. The scale is %.

# molecule, value.unit, Mortality (%)
records = [
    ("Cc1cc(C(F)(C(F)(F)F)C(F)(F)F)cc(C)c1NC(=O)c1cccc(N(C)C(=O)c2ccc(C#N)cc2)c1F", "%", 95),
    ("CC(C)C(CNC(=O)c1cc2ccccc2o1)NC(=O)OCC(F)(F)F (stereo not drawn)", "%", 0),
    ("Cc1ccc(C(=O)NCC(NC(=O)OC(C)C)C(C)C)cc1 (stereo not drawn)", "%", 0),
]

Query string: Which value of Mortality (%) has been reported for Cc1ccc(C(=O)NCC(NC(=O)OC(C)C)C(C)(C)C)cc1 (stereo not drawn) in the records?
Result string: 0

Query string: Param item = CC(C)OC(=O)NC(CNC(=O)c1cc2ccccc2o1)C(C)C (stereo not drawn) ; retrieve measured Mortality (%).
Result string: 0

Query string: Reported Mortality (%) for Cc1ccc(C(=O)NCC(NC(=O)OCC(F)(F)F)C(C)C)cc1 (stereo not drawn) : what is it?
Result string: 0

====

# Test system: Chilo suppressalis
# experimental.parameters: in vivo
observed.property: Mortality (%)
# output: bare number, implied unit %

# compound, Mortality (%)
data = [
    ("CC(C)C(CNC(=O)c1cc2ccccc2o1)NC(=O)OCC(F)(F)F (stereo not drawn)", 0),
    ("Cc1ccc(C(=O)NCC(NC(=O)OCC(F)(F)F)C(C)C)cc1 (stereo not drawn)", 0),
    ("Cc1cc(C(F)(C(F)(F)F)C(F)(F)F)cc(C)c1NC(=O)c1cccc(N(C)C(=O)c2ccc(C#N)cc2)c1F", 95),
]

Query string: Dear colleague, I am looking for the recorded Mortality (%) of the following compound: CC(C)OC(=O)NC(CNC(=O)c1cc2ccccc2o1)C(C)C (stereo not drawn)
Result string: 0

Query string: Return reported Mortality (%); argument: Cc1ccc(C(=O)NCC(NC(=O)OC(C)C)C(C)C)cc1 (stereo not drawn)
Result string: 0

Query string: Mortality (%) lookup needed for Cc1ccc(C(=O)NCC(NC(=O)OC(C)C)C(C)(C)C)cc1 (stereo not drawn) , thanks.
Result string: 0

====

# Test system: Pyricularia oryzae
# Format: in vivo
# experimental.parameters: inoculated 1 day after spraying, lesions counted after 7 days; amount of treated chemical 100 gai/box
Listed here: items and their measured Pyricularia oryzae Control value.
Respond with the number and no other words.

Please review the entries below; each comes with its answer.
# compound, Pyricularia oryzae Control value
records = [
    ("Cc1cc(C(F)(C(F)(F)F)C(F)(F)F)cc(C)c1NC(=O)c1cccc(NC(=O)c2ccccc2)c1F [Compound 601]", 2),
    ("Cc1cc(C(F)(C(F)(F)F)C(F)(F)F)cc(C)c1NC(=O)c1cccc(NC(=O)OCC(F)(F)F)c1F [Compound 3000]", 3),
    ("Cc1cc(C(F)(C(F)(F)F)C(F)(F)F)cc(C)c1NC(=O)c1cccc(NC(=O)OCCCl)c1F [Compound 3002]", 3),
    ("Cc1cc(C(F)(C(F)(F)F)C(F)(F)F)cc(C)c1NC(=O)c1cccc(N(C)C(=O)c2ccccc2)c1F [Compound 1208]", 5),
    ("Cc1cc(C(F)(C(F)(F)F)C(F)(F)F)cc(C)c1NC(=O)c1cccc(NC(=O)OC(CF)CF)c1 [Compound 3001]", 0),
]

Please find the next compound below.
Query string: I'd like to know its Pyricularia oryzae Control value. The compound in question is O=C(Nc1cccc(C(=O)Nc2c(Br)cc(C(F)(C(F)(F)F)C(F)(F)F)cc2SC(F)(F)F)c1)c1ccccc1 [Compound 210]
Result string: 0
